Test system: strain of P. aeruginosa, PAM1723, overexpressing the MexAB-OprM efflux pump
Experiment: checkerboard assay, levofloxacin potentiating activity (broth microdilution)
Type: cell-based
Conditions: lowest inhibitor concentration giving antibacterial activity with levofloxacin at 1/32 of its MIC; MHB, 20 h, 35° C.
Quantity Kind: MPC32 (Minimum Potentiating Concentration)

INSERT INTO results (compound, value) VALUES
  ('CN(C(=O)[C@@H](N)CCC(=O)N(CCN)CCN)[C@@H](Cc1ccc(C(F)(F)F)cc1)C(=O)Nc1cnc2ccccc2c1 [Compound 5]', '>10 µg/mL'),
  ('NCCN(CCN)C(=O)CC[C@H](N)C(=O)N/C(=C/c1ccc(C(F)(F)F)cc1)C(=O)Nc1cnc2ccccc2c1 [Compound 4]', '2.5 µg/mL'),
  ('NCCN(CCN)C(=O)CC[C@H](N)C(=O)N[C@H](Cc1ccc(C(F)(F)F)cc1)C(=O)Nc1cnc2ccccc2c1 [Compound 1]', '0.6 µg/mL'),
  ('NCCN(CCN)C(=O)CC[C@H](N)C(=O)N[C@H](C(=O)Nc1cnc2ccccc2c1)[C@H](O)c1ccc(C(F)(F)F)cc1 [Compound 3]', '>10 µg/mL'),
  ('NCCN(CCN)C(=O)C[C@H](N)C(=O)N[C@@H](CCc1ccccc1)C(=O)Nc1cnc2ccccc2c1 [Compound 2]', '5 µg/mL');
